Where do the numbers come from? From patent US20120295907A1.

tested on: Heliothis virescens; assay: Heliothis virescens (Tobacco Budworm) egg test on artificial diet; assay type: in vivo; conditions: 96 h, 200 ppm (concentration in well 18 ppm), eggs 0-24 h old on artificial diet, 4 days, egg mortality, larval mortality, growth regulation
measurement-kind: pest or weed control at 200 ppm

[[record]]
molecule = "COc1c(NC(=O)c2ccnc(C(F)(F)F)c2Cl)cccc1C(=O)Nc1c(Cl)cc(C(F)(C(F)(F)F)C(F)(F)C(F)(F)F)cc1Br (stereo not drawn)"
observed_value = "≥ 80%"

[[record]]
molecule = "COc1c(NC(=O)c2ccc([N+](=O)[O-])c(C)c2I)cccc1C(=O)Nc1c(Cl)cc(C(F)(C(F)(F)F)C(F)(F)C(F)(F)F)cc1Br (stereo not drawn)"
observed_value = "≥ 80%"

[[record]]
molecule = "CCc1cc(C(F)(C(F)(F)F)C(F)(F)C(F)(F)F)cc(C)c1NC(=O)c1cccc(NC(=O)c2ccc(C#N)cc2)c1OC (stereo not drawn)"
observed_value = "≥ 80%"


###

tested on: Tetranychus urticae; test: Tetranychus urticae (Two-Spotted Spider Mite) bean leaf disc spray test; assay type: in vivo; conditions: foliar, 192 h, 200 ppm spray on bean leaf discs, mite populations of mixed ages, 8 days, egg, larval and adult mortality, read-out: control of Tetranychus urticae
measurement-kind: pest or weed control at 200 ppm

[[record]]
compound = "CCc1cc(C(F)(C(F)(F)F)C(F)(F)C(F)(F)F)cc(C)c1NC(=O)c1cccc(NC(=O)c2cccnc2Cl)c1OC (stereo not shown)"
measurement_kind = "pest or weed control at 200 ppm"
observed_value = "≥ 80%"

[[record]]
compound = "COc1c(NC(=O)c2sc(C)nc2C(F)(F)F)cccc1C(=O)Nc1c(Cl)cc(C(F)(C(F)(F)F)C(F)(F)C(F)(F)F)cc1Br (stereo not shown)"
measurement_kind = "pest or weed control at 200 ppm"
observed_value = "≥ 80%"

[[record]]
compound = "COc1c(NC(=O)c2ccccc2[N+](=O)[O-])cccc1C(=O)Nc1c(Cl)cc(C(F)(C(F)(F)F)C(F)(F)C(F)(F)F)cc1Br (stereo not shown)"
measurement_kind = "pest or weed control at 200 ppm"
observed_value = "≥ 80%"

[[record]]
compound = "COc1c(NC(=O)c2ccc(F)cc2F)cccc1C(=O)Nc1c(Cl)cc(C(F)(C(F)(F)F)C(F)(F)C(F)(F)F)cc1Cl (stereo not shown)"
measurement_kind = "pest or weed control at 200 ppm"
observed_value = "≥ 80%"

[[record]]
compound = "COc1c(NC(=O)c2cc(F)c(F)cc2Cl)cccc1C(=O)Nc1c(Cl)cc(C(F)(C(F)(F)F)C(F)(F)C(F)(F)F)cc1Br (stereo not shown)"
measurement_kind = "pest or weed control at 200 ppm"
observed_value = "≥ 80%"

[[record]]
compound = "CCc1cc(C(F)(C(F)(F)F)C(F)(F)C(F)(F)F)cc(C)c1NC(=O)c1cccc(NC(=O)c2ccc(C#N)cc2)c1OC (stereo not shown)"
measurement_kind = "pest or weed control at 200 ppm"
observed_value = "≥ 80%"

[[record]]
compound = "COc1c(NC(=O)c2csnc2C)cccc1C(=O)Nc1c(Cl)cc(C(F)(C(F)(F)F)C(F)(F)C(F)(F)F)cc1Br (stereo not shown)"
measurement_kind = "pest or weed control at 200 ppm"
observed_value = "≥ 80%"


###

test system: Spodoptera littoralis; assay: Spodoptera littoralis (Egyptian Cotton Leafworm) cotton leaf disc spray test; assay type: in vivo; conditions: foliar, 72 h, 200 ppm spray on cotton leaf discs, L1 larvae, mortality, feeding behavior, growth regulation 3 DAT
measurement-kind: pest or weed control at 200 ppm

[[record]]
compound = "COc1c(NC(=O)c2cccc(C)c2[N+](=O)[O-])cccc1C(=O)Nc1c(Cl)cc(C(F)(C(F)(F)F)C(F)(F)C(F)(F)F)cc1Br (centres unmarked)"
measurement_kind = "pest or weed control at 200 ppm"
observed_value = "≥ 80%"

[[record]]
compound = "COc1c(NC(=O)c2ccc(C(F)(F)F)cc2)cccc1C(=O)Nc1c(Cl)cc(C(F)(C(F)(F)F)C(F)(F)C(F)(F)F)cc1Br (centres unmarked)"
measurement_kind = "pest or weed control at 200 ppm"
observed_value = "≥ 80%"

[[record]]
compound = "COc1c(NC(=O)c2ccc(SC)cc2)cccc1C(=O)Nc1c(Cl)cc(C(F)(C(F)(F)F)C(F)(F)C(F)(F)F)cc1Br (centres unmarked)"
measurement_kind = "pest or weed control at 200 ppm"
observed_value = "≥ 80%"

[[record]]
compound = "COc1c(NC(=O)c2ccc(OC(F)(F)F)cc2)cccc1C(=O)Nc1c(Cl)cc(C(F)(C(F)(F)F)C(F)(F)C(F)(F)F)cc1Cl (centres unmarked)"
measurement_kind = "pest or weed control at 200 ppm"
observed_value = "≥ 80%"

[[record]]
compound = "COc1c(NC(=O)c2cc(C)oc2C)cccc1C(=O)Nc1c(Cl)cc(C(F)(C(F)(F)F)C(F)(F)C(F)(F)F)cc1Br (centres unmarked)"
measurement_kind = "pest or weed control at 200 ppm"
observed_value = "≥ 80%"

[[record]]
compound = "CCc1cc(C(F)(C(F)(F)F)C(F)(F)C(F)(F)F)cc(C)c1NC(=O)c1cccc(NC(=O)c2cccnc2F)c1OC (centres unmarked)"
measurement_kind = "pest or weed control at 200 ppm"
observed_value = "≥ 80%"

[[record]]
compound = "COc1c(NC(=O)c2cc(C)ccc2Cl)cccc1C(=O)Nc1c(Cl)cc(C(F)(C(F)(F)F)C(F)(F)C(F)(F)F)cc1Br (centres unmarked)"
measurement_kind = "pest or weed control at 200 ppm"
observed_value = "≥ 80%"

[[record]]
compound = "COc1cc(C(=O)Nc2cccc(C(=O)Nc3c(Cl)cc(C(F)(C(F)(F)F)C(F)(F)C(F)(F)F)cc3Br)c2OC)cc(Cl)n1 (centres unmarked)"
measurement_kind = "pest or weed control at 200 ppm"
observed_value = "≥ 80%"

[[record]]
compound = "COc1c(NC(=O)c2ccc(C(F)(F)F)cc2F)cccc1C(=O)Nc1c(Cl)cc(C(F)(C(F)(F)F)C(F)(F)C(F)(F)F)cc1Br (centres unmarked)"
measurement_kind = "pest or weed control at 200 ppm"
observed_value = "≥ 80%"

[[record]]
compound = "COc1c(NC(=O)c2ccc([N+](=O)[O-])c(F)c2)cccc1C(=O)Nc1c(Cl)cc(C(F)(C(F)(F)F)C(F)(F)C(F)(F)F)cc1Br (centres unmarked)"
measurement_kind = "pest or weed control at 200 ppm"
observed_value = "≥ 80%"

[[record]]
compound = "CCc1cc(C(F)(C(F)(F)F)C(F)(F)C(F)(F)F)cc(C)c1NC(=O)c1cccc(NC(=O)c2cccc([N+](=O)[O-])c2C)c1OC (centres unmarked)"
measurement_kind = "pest or weed control at 200 ppm"
observed_value = "≥ 80%"

[[record]]
compound = "COc1c(NC(=O)c2ccc(Cl)cc2)cccc1C(=O)Nc1c(C)cc(C(F)(C(F)(F)F)C(F)(F)C(F)(F)F)cc1C (centres unmarked)"
measurement_kind = "pest or weed control at 200 ppm"
observed_value = "≥ 80%"

[[record]]
compound = "COc1c(NC(=O)c2ccc(C)s2)cccc1C(=O)Nc1c(Cl)cc(C(F)(C(F)(F)F)C(F)(F)C(F)(F)F)cc1Br (centres unmarked)"
measurement_kind = "pest or weed control at 200 ppm"
observed_value = "≥ 80%"

[[record]]
compound = "COc1c(NC(=O)c2ccc(Br)o2)cccc1C(=O)Nc1c(Cl)cc(C(F)(C(F)(F)F)C(F)(F)C(F)(F)F)cc1Br (centres unmarked)"
measurement_kind = "pest or weed control at 200 ppm"
observed_value = "≥ 80%"

[[record]]
compound = "COc1c(NC(=O)c2ccc(F)c([N+](=O)[O-])c2)cccc1C(=O)Nc1c(Cl)cc(C(F)(C(F)(F)F)C(F)(F)C(F)(F)F)cc1Br (centres unmarked)"
measurement_kind = "pest or weed control at 200 ppm"
observed_value = "≥ 80%"

[[record]]
compound = "COc1c(NC(=O)c2ccc(S(C)(=O)=O)cc2)cccc1C(=O)Nc1c(C)cc(C(F)(C(F)(F)F)C(F)(F)C(F)(F)F)cc1C (centres unmarked)"
measurement_kind = "pest or weed control at 200 ppm"
observed_value = "≥ 80%"

[[record]]
compound = "COc1c(NC(=O)c2ccc(C#N)cc2)cccc1C(=O)Nc1c(Cl)cc(C(F)(C(F)(F)F)C(F)(F)F)cc1Cl"
measurement_kind = "pest or weed control at 200 ppm"
observed_value = "≥ 80%"

[[record]]
compound = "COc1c(NC(=O)c2ccc([N+](=O)[O-])cc2C(F)(F)F)cccc1C(=O)Nc1c(Cl)cc(C(F)(C(F)(F)F)C(F)(F)C(F)(F)F)cc1Br (centres unmarked)"
measurement_kind = "pest or weed control at 200 ppm"
observed_value = "≥ 80%"

[[record]]
compound = "COc1c(NC(=O)c2ccc(C#N)cc2Cl)cccc1C(=O)Nc1c(Cl)cc(C(F)(C(F)(F)F)C(F)(F)F)cc1Br"
measurement_kind = "pest or weed control at 200 ppm"
observed_value = "≥ 80%"

[[record]]
compound = "COc1c(NC(=O)c2ccc(C#N)cc2)cccc1C(=O)Nc1c(Cl)cc(C(F)(C(F)(F)F)C(F)(F)C(F)(F)F)cc1Br (centres unmarked)"
measurement_kind = "pest or weed control at 200 ppm"
observed_value = "≥ 80%"

[[record]]
compound = "COc1c(NC(=O)c2cc(C(C)(C)C)nn2C)cccc1C(=O)Nc1c(Cl)cc(C(F)(C(F)(F)F)C(F)(F)C(F)(F)F)cc1Br (centres unmarked)"
measurement_kind = "pest or weed control at 200 ppm"
observed_value = "≥ 80%"

[[record]]
compound = "COc1c(NC(=O)c2cc(C)n(C)n2)cccc1C(=O)Nc1c(Cl)cc(C(F)(C(F)(F)F)C(F)(F)C(F)(F)F)cc1Br (centres unmarked)"
measurement_kind = "pest or weed control at 200 ppm"
observed_value = "≥ 80%"

[[record]]
compound = "COc1c(NC(=O)c2ccccc2)cccc1C(=O)Nc1c(Cl)cc(C(F)(C(F)(F)F)C(F)(F)F)cc1Cl"
measurement_kind = "pest or weed control at 200 ppm"
observed_value = "≥ 80%"

[[record]]
compound = "COc1c(NC(=O)c2c(C)nn(C)c2Cl)cccc1C(=O)Nc1c(Cl)cc(C(F)(C(F)(F)F)C(F)(F)C(F)(F)F)cc1Br (centres unmarked)"
measurement_kind = "pest or weed control at 200 ppm"
observed_value = "≥ 80%"

[[record]]
compound = "COc1c(NC(=O)c2cccc(F)c2F)cccc1C(=O)Nc1c(Cl)cc(C(F)(C(F)(F)F)C(F)(F)C(F)(F)F)cc1Br (centres unmarked)"
measurement_kind = "pest or weed control at 200 ppm"
observed_value = "≥ 80%"

[[record]]
compound = "COc1c(NC(=O)c2cccc([N+](=O)[O-])c2Cl)cccc1C(=O)Nc1c(Cl)cc(C(F)(C(F)(F)F)C(F)(F)C(F)(F)F)cc1Br (centres unmarked)"
measurement_kind = "pest or weed control at 200 ppm"
observed_value = "≥ 80%"

